protocol: Unbound Tmax in Balb/c mouse at 10 to 100 mg/kg, po
Type: ADME, organism-based
conditions: in vivo, read-out: fTmax
parameter: Tmax (h)
Number in h, nothing else.

Form field Tmax, entry COc1ccc(NC(=O)N2CCN(c3nc(N)nc4scnc34)CC2)cc1 : 1

====

protocol: physchem
conditions: phosphate buffer, pH 7.4
# logD at 1.5 h annotations
Give the value as a plain number.

Use the examples below as a reference point.
Form field logD at 1.5 h, entry Nc1nc(N2CCN(C(=O)COc3ccc(Cl)cc3)CC2)c2ncsc2n1 : 2.68

Form field logD at 1.5 h, entry Nc1nc(N2CCN(C(=O)Nc3ccccc3)CC2)c2ncsc2n1 : 2.21

Form field logD at 1.5 h, entry COc1cc(C)c(NC(=O)N2CCN(c3nc(N)nc4scnc34)CC2)cn1 : 1.66

---
Form field logD at 1.5 h, entry COc1ccc(NC(=O)N2CCN(c3nc(N)nc4scnc34)CC2)c(C)n1 : 1.65

Form field logD at 1.5 h, entry Cc1ccccc1NC(=O)N1CCN(c2nc(N)nc3scnc23)CC1 : 2.12

Form field logD at 1.5 h, entry COc1ccc(NC(=O)N2CCN(c3nc(N)nc4scnc34)CC2)c(C)c1 : 2.03

Form field logD at 1.5 h, entry Cc1ccc(NC(=O)N2CCN(c3nc(N)nc4sc(-c5cccnc5)nc34)CC2)cc1 : 3.42

Form field logD at 1.5 h, entry Nc1nc(N2CCN(C(=O)c3nc4ccccc4[nH]3)CC2)c2ncsc2n1 : 2.54

Form field logD at 1.5 h, entry Cc1ccc(NC(=O)N2CCN(c3nc(N)nc4scnc34)CC2)cc1 : 2.55

Form field logD at 1.5 h, entry Nc1nc(N2CCN(C(=O)Nc3cccnc3)CC2)c2ncsc2n1 : 1.46

====

Data export: IC50 values recorded with Voltage-gated inwardly rectifying potassium channel KCNH2 (Homo sapiens).
Sequence (Q12809 whole entry): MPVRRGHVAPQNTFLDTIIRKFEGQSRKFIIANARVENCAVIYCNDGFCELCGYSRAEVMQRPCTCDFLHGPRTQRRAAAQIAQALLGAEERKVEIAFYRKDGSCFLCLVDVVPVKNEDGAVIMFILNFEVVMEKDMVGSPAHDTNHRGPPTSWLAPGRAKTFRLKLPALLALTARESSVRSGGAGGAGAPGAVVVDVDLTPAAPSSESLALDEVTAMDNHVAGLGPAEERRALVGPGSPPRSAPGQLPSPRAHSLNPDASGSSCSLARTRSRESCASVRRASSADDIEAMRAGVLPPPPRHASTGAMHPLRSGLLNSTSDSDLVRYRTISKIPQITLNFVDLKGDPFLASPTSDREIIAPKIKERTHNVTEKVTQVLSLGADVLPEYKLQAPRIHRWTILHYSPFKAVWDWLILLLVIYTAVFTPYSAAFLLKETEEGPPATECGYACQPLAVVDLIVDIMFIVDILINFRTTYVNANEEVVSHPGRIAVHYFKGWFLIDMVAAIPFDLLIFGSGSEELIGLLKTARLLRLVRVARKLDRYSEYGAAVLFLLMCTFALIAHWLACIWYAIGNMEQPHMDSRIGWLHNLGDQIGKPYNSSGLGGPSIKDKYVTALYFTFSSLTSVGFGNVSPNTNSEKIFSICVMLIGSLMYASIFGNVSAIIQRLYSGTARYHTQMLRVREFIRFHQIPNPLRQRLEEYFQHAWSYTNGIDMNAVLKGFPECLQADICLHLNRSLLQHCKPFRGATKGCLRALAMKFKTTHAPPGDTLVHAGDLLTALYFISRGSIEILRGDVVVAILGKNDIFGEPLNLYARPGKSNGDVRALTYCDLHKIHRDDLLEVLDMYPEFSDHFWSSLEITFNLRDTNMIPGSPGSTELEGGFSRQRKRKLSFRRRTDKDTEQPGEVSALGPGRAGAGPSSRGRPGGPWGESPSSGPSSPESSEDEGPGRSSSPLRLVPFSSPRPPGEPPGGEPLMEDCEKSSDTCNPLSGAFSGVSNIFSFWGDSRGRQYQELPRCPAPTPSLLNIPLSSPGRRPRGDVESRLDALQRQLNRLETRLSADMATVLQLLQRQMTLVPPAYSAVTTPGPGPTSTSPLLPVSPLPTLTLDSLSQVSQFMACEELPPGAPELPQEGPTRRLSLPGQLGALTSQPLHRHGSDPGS
Number in µM, nothing else.

# lookup: COc1ccc(NC(=O)N2CCN(c3nc(N)nc4scnc34)[C@@H](C)C2)cc1 on Voltage-gated inwardly rectifying potassium channel KCNH2 (Homo sapiens), IC50 = 17

# lookup: Cc1ccc(NC(=O)N2CCN(c3nc(N)nc4sc(-c5cccnc5)nc34)CC2)cc1 on Voltage-gated inwardly rectifying potassium channel KCNH2 (Homo sapiens), IC50 = 2

# lookup: COc1ccc(NC(=O)N2CCN(c3nc(N)nc4scnc34)CC2)cc1 on Voltage-gated inwardly rectifying potassium channel KCNH2 (Homo sapiens), IC50 = 28

Kindly review the next compound as well.
# lookup: COc1ccc(NC(=O)N2CCN(c3nc(N)nc4sc(-c5ccccc5)nc34)CC2)cc1 on Voltage-gated inwardly rectifying potassium channel KCNH2 (Homo sapiens), IC50 = 1.7

====

experimental-target: UniProtKB Q9UBF8
Sequence (Q9UBF8 whole entry): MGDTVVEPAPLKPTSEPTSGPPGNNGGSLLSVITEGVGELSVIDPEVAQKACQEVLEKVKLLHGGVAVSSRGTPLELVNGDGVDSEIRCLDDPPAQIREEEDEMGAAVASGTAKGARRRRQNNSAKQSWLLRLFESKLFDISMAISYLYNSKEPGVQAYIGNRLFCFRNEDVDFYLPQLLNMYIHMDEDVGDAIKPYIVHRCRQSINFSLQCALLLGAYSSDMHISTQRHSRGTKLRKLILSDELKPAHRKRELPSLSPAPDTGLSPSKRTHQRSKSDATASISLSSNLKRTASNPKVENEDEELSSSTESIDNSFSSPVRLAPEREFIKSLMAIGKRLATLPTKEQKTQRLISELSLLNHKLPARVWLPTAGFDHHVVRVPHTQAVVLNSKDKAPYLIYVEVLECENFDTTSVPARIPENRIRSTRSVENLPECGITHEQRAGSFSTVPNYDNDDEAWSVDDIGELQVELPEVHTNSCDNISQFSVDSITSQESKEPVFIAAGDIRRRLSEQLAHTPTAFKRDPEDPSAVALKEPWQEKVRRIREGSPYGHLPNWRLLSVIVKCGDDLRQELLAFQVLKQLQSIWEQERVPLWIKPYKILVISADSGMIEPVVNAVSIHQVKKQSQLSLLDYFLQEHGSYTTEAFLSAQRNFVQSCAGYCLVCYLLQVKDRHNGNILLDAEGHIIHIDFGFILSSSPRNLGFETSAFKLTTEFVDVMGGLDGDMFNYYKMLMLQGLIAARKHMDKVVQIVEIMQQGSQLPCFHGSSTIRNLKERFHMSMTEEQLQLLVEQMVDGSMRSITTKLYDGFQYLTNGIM
protocol: Inhibition of recombinant human full length GST-tagged PI4K3beta expressed in baculovirus expression system using PI lipid kinase substrate after 60 mins by ADP-Glo assay
parameter: IC50

Form field IC50, entry COc1ccc(NC(=O)C2CCN(c3nc(N)nc4scnc34)CC2)cc1 : > 6 µM

====

protocol: physchem
conditions: phosphate buffer, pH 7.4
# logD at 1.5 h annotations
Give the value as a plain number.

Use the examples below as a reference point.
Form field logD at 1.5 h, entry Cc1cccc(NC(=O)N2CCN(c3nc(N)nc4scnc34)CC2)c1 : 2.81

Form field logD at 1.5 h, entry COc1ccc(NC(=O)N2CCN(c3nc(N)nc4scnc34)CC2)cn1 : 1.79

Form field logD at 1.5 h, entry COc1ccc(NC(=O)N2CCN(c3nc(N)nc4scnc34)[C@@H](C)C2)cc1 : 2.32

Kindly review the next molecule as well.
Form field logD at 1.5 h, entry Nc1nc(N2CCN(C(=O)Nc3ccc(OC(F)(F)F)cc3)CC2)c2ncsc2n1 : 3.39
